Values compiled from patent US20100311107A1.

- Tested on: E. coli screening strain CM400
- Type: cell-based, Escherichia coli
- Design: unit not given here
- CONDITION INFO: Table 13, MHB medium
RECORDED METRIC: Minimal inhibitory concentrations (MIC90) CM400

- SMILES CODE: "CCN[C@@H]1C[C@H](N)[C@@H](O[C@H]2OC(CN)=CC[C@H]2N)[C@H](O)[C@H]1O[C@H]1OC[C@](C)(O)[C@H](NC)[C@H]1O"
  EXPERIMENTAL VALUE: ">64"
- SMILES CODE: "[H]/N=C(/N)N[C@H]1[C@H](O)[C@@H](O)[C@H](O[C@@H]2O[C@@H](C)[C@](O)(C=O)[C@H]2O[C@@H]2O[C@@H](CO)[C@H](O)[C@@H](O)[C@@H]2NC)[C@@H](N/C(N)=N\\[H])[C@@H]1O"
  EXPERIMENTAL VALUE: ">64"
- SMILES CODE: "COC1=C(N)C(=O)c2nc(-c3nc(C(=O)O)c(C)c(-c4ccc(OC)c(OC)c4O)c3N)ccc2C1=O"
  EXPERIMENTAL VALUE: 8
- SMILES CODE: "NC[C@H]1O[C@H](O[C@H]2[C@H](O)[C@@H](O[C@H]3O[C@H](CO)[C@@H](O)[C@H](N)[C@H]3O)[C@H](N)C[C@@H]2N)[C@H](O)[C@@H](O)[C@@H]1O"
  EXPERIMENTAL VALUE: ">64"
- SMILES CODE: "CN(C)[C@@H]1C(O)=C(C(N)=O)C(=O)[C@@]2(O)C(O)=C3C(=O)c4c(O)cccc4[C@@](C)(O)[C@H]3C[C@@H]12"
  EXPERIMENTAL VALUE: ">64"
- SMILES CODE: "C[C@@H]1O[C@@H]1P(=O)(O)O"
  EXPERIMENTAL VALUE: 8

----------
Measured Minimal inhibitory concentrations (MIC90) MG1655 accompanies every entry in the list below.
- Tested on: E. coli MG1655
- Assay type: cell-based, Escherichia coli
- Design: unit not given here
- CONDITION INFO: Table 7, MHB medium
RECORDED METRIC: Minimal inhibitory concentrations (MIC90) MG1655

- COMPOUND: "O=C(N[C@H](CO)[C@H](O)c1ccc([N+](=O)[O-])cc1)C(Cl)Cl [Chloramphenicol]"
  EXPERIMENTAL VALUE: 3.2
- COMPOUND: "COC1=C(N)C(=O)c2nc(-c3nc(C(=O)O)c(C)c(-c4ccc(OC)c(OC)c4O)c3N)ccc2C1=O [Streptonigrin]"
  EXPERIMENTAL VALUE: 3.2
- COMPOUND: "CCn1cc(C(=O)O)c(=O)c2ccc(C)nc21 [Nalidixic Acid]"
  EXPERIMENTAL VALUE: 6.3
- COMPOUND: "CC1(C)S[C@@H]2[C@H](NC(=O)[C@H](N)c3ccccc3)C(=O)N2[C@H]1C(=O)O [Ampicillin]"
  EXPERIMENTAL VALUE: "1.6-3.2"
- COMPOUND: "CCN[C@@H]1C[C@H](N)[C@@H](O[C@H]2OC(CN)=CC[C@H]2N)[C@H](O)[C@H]1O[C@H]1OC[C@](C)(O)[C@H](NC)[C@H]1O [Netilmycin]"
  EXPERIMENTAL VALUE: 1.6
- COMPOUND: "CO[C@H]1[C@H](OC(=O)c2ccc(C)[nH]2)[C@H](O)[C@@H](Oc2ccc3c(O)c(NC(=O)c4c[nH]c(C(=O)Nc5c(O)c6ccc(O[C@H]7OC(C)(C)[C@@H](OC)[C@H](OC(=O)c8ccc(C)[nH]8)[C@@H]7O)c(C)c6oc5=O)c4C)c(=O)oc3c2C)OC1(C)C [Coumermycin A1]"
  EXPERIMENTAL VALUE: 12.5
